test_name: LogP by HPLC on reversed phase columns (EEC directive 79/831 Annex V.A8)
Format: physicochemical
Reported LogP is given for each of the following compounds.

{"columns": ["compound", "LogP"],
 "data": [
  ["COC(=O)C(CCSC(C)=O)NC(=O)c1sc(Cl)c(Cl)c1Cl (centres unmarked)", "3.94^[a]"],
  ["COC(=O)C1(NC(=O)c2sc(Cl)c(Cl)c2Cl)CCC1", "3.69^[a]"],
  ["CCOC(=O)CN(C(=O)c1sc(Cl)c(Cl)c1Cl)C1CC1", "3.78^[a]"],
  ["CCOC(=O)CN(OC)C(=O)c1sc(Cl)c(Cl)c1Cl", "3.64^[a]"]
]}

Reported LogP, compound CCOC(=O)C1(NC(=O)c2sc(Cl)c(Cl)c2Cl)CN(C(=O)OC(C)(C)C)C1 : ____ 4.47^[a]
